// merged dataset of Ki values, system = 5-hydroxytryptamine receptor 1A (Rattus norvegicus, UniProt P19327), multiple refs
Biological target: 5-hydroxytryptamine receptor 1A (Rattus norvegicus, UniProt P19327)
Sequence (P19327 whole entry): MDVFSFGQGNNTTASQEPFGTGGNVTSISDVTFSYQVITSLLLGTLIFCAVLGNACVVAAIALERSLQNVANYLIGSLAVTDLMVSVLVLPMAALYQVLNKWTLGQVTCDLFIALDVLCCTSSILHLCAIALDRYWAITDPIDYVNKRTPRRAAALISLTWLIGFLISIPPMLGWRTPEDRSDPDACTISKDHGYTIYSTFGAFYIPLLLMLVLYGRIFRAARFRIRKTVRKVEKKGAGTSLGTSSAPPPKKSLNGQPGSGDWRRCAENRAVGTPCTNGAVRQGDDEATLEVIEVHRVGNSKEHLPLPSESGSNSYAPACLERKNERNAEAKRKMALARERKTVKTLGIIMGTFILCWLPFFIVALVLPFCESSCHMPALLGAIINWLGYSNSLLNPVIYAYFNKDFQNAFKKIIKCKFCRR
Categorize each record by its Ki using group 1: < 100 nM; group 2: ≥ 100 nM and < 2000 nM; group 3: ≥ 2000 nM

[ask] Pick a category. Item: CCOC12CCC(C(=O)C1)C1C(=O)N(CCCCN3CCN(c4ccccc4OC)CC3)C(=O)C12 (stereo not given)
[reply] group 1

[ask] Please indicate the class for CC1(CNCC2CCN(c3ncccn3)CC2)COc2ccccc2O1 (stereo not given) based on its Ki.
[reply] group 2

[ask] Could you place `O=C1CC(=C(c2ccccc2)c2ccccc2)C(=O)N1CCCCN1CCN(c2ccccc2)CC1` in its proper category? Many thanks.
[reply] group 2

[ask] Record `Cc1ccc(-c2nn(CCCCN3CCN(c4ccccc4)CC3)c(=O)c3ccccc23)cc1` — which class?
[reply] group 2

[ask] Bin? CC1Oc2ccccc2OC1COCCCN1CCC(c2nc3ccccc3o2)CC1 (stereo not given)
[reply] group 2

---

Listing of Ki toward 5-hydroxytryptamine receptor 1A (Rattus norvegicus, UniProt P19327), each taken from a published source.
Molecular target: 5-hydroxytryptamine receptor 1A (Rattus norvegicus, UniProt P19327)
Sequence (P19327 whole entry): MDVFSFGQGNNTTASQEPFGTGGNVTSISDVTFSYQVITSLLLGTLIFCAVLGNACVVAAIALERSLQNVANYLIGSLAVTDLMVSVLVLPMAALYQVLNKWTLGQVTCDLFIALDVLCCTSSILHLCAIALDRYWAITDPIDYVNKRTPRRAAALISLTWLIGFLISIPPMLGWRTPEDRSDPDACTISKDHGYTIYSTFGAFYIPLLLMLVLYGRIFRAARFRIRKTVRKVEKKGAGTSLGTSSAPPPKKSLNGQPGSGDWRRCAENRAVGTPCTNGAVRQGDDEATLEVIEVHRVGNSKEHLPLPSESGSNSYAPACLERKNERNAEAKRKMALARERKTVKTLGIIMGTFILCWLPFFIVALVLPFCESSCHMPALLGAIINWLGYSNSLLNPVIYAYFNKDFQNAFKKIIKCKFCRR
Note to self: class = bucket of Ki, per I: < 70 nM; II: ≥ 70 nM and < 400 nM; III: ≥ 400 nM

Example results:
- Cc1ccccc1-c1c(=O)n(CCCCN2CC=C(c3c[nH]c4ccc(Cl)cc34)CC2)c(=O)n2ccccc12: II
- COc1ccccc1N1CCN(CCCCNC(=O)c2cc3ccccc3cn2)CC1: I
- COc1ccccc1N1CCN(CCn2c(=O)[nH]c3[nH]c(-c4ccc(OCc5ccccc5)cc4)cc3c2=O)CC1: III
- O=C1C2CCCCN2C(=O)N1CCCN1CCN(c2ccc(F)cc2)CC1 (stereo not given): III
- O=c1[nH]c2cc[nH]c2c(=O)n1CCN1CCN(c2ccccc2Cl)CC1: III

[ask] Place this compound in its band: `Clc1ccc(N2CCN(Cc3cnn(-c4ccccc4)c3)CC2)cc1`
[reply] II

[ask] Would you mind sorting `C[C@H](CCc1ccccc1)NC[C@H](O)c1ccc(O)c(C(N)=O)c1` into the appropriate category?
[reply] II

[ask] Would you mind sorting `COc1ccccc1N1CCN(CCCN2Cc3nc4ccccc4cc3C2=O)CC1` into the appropriate category?
[reply] II

[ask] Input `CCOc1ccccc1N1CCN(CCCCn2nc(-n3ccc4ccccc43)ccc2=O)CC1` ; output its category
[reply] I

[ask] Consider `O=S(=O)(c1ccc(Cl)c(Cl)c1)N1CCC(CNCc2cccc(-n3cccn3)n2)CC1` . To which Ki class does it belong?
[reply] II

[ask] Looking at `O=c1c2cnc3ccccc3c2ncn1CCCCN1CCN(c2cccc(Cl)c2)CC1` , which class would you pick?
[reply] I

[ask] Using the reported Ki, which band applies to `O=c1ccc2ccc(OCCCCN3CCC(c4noc5cc(F)ccc45)CC3)cc2o1` ?
[reply] III

[ask] Which band does `O=S(=O)(c1ccc2ccccc2c1)N1CCC(CN2CCC(c3noc4cc(F)ccc34)CC2)CC1` fall in?
[reply] III

[ask] Tag the class for `Clc1ccc2c(c1)nc(N1CCNCC1)n2Cc1ccccc1`
[reply] III

[ask] Band for the recorded Ki of `O=c1c2cnc3ccccc3c2ncn1CCN1CCN(c2cccc(C(F)(F)F)c2)CC1` ?
[reply] II

[ask] Pick a category. Item: `O=C(N[C@H]1CC[C@H](CCN2CCN(c3ccccc3)CC2)CC1)c1cccs1`
[reply] I

[ask] Category lookup for the compound `O=c1[nH]c2[nH]c(-c3ccc(Oc4ccccc4)cc3)cc2c(=O)n1CCN1CCN(c2ccccc2Cl)CC1`
[reply] III

[ask] Input `Cc1cccc(N2CCN(CCCCOc3ccc4c5c(c(=O)oc4c3)CCC5)CC2)c1C` ; output its category
[reply] I

[ask] Assign a bin to O=C1C2CCCCN2C(=O)N1CCN1CCN(c2cccc(C(F)(F)F)c2)CC1 (stereo not given)
[reply] I

[ask] Which category fits this record: `COc1ccccc1N1CCN(CCCCc2ccc3c(c2)sc(=O)n3CCN2CCC(C(=O)c3ccc(F)cc3)CC2)CC1`
[reply] I
